Attribution: patent US4031218A

Let's look at some compounds and their measured Therapeutic Efficacy.
- experimentNotes: Summary of relative molar activities (means and therapeutic efficacy)
- conditionLabel: mean bronchodilator (therapeutic) activity divided by mean acute toxic and side effect activity
metric: Therapeutic Efficacy

{"columns": ["compound", "observedResult"],
 "data": [
  ["Cn1c(=O)c2c(ncn2CC(O)CO)n(C)c1=O (centres unmarked)", 2.31],
  ["CCCn1c(=O)c2c(ncn2CC(O)CO)n(CCC)c1=O (centres unmarked)", 2.51],
  ["CCCn1c(=O)c2c(ncn2CC(C)O)n(CCC)c1=O (centres unmarked)", 0.09],
  ["Cn1c(=O)c2[nH]cnc2n(C)c1=O", 1.00],
  ["CCCn1c(=O)c2c(ncn2CCCO)n(CCC)c1=O", 0.72]
]}

---

- System: dogs
- experimentNotes: Intravenous emetic study in dogs (ED50)
- Format: in vivo, dog
- conditionLabel: relative to theophylline, molar basis
Let's look at some molecules and their measured I.V. Emetic (Dogs), relative molar activity.
metric: I.V. Emetic (Dogs), relative molar activity

{"columns": ["molecule", "observedResult"],
 "data": [
  ["Cn1c(=O)c2c(ncn2CC(O)CO)n(C)c1=O (stereo not shown) [Compound II]", 0.09],
  ["CCCn1c(=O)c2c(ncn2CC(O)CO)n(CCC)c1=O (stereo not shown) [Compound V]", 1.91],
  ["CCCn1c(=O)c2c(ncn2CC(C)O)n(CCC)c1=O (stereo not shown) [III]", 134.17],
  ["CCCn1c(=O)c2c(ncn2CCCO)n(CCC)c1=O [IV]", 12.88]
]}

---

- System: dogs
- experimentNotes: Intravenous cardiovascular evaluation in dogs
- conditionLabel: i.v. dogs, estimated at HBD
metric: CW (cardiac work) change (%Δ)

{"columns": ["compound", "observedResult"],
 "data": [
  ["CCCn1c(=O)c2c(ncn2CCCO)n(CCC)c1=O [IV]", -26],
  ["Cn1c(=O)c2c(ncn2CC(O)CO)n(C)c1=O (stereo not shown) [Compound II]", -30]
]}

---

- System: dogs
- experimentNotes: Intravenous cardiovascular evaluation in dogs
- conditionLabel: mean of the cardiovascular changes, i.v. dogs, estimated at HBD

{"columns": ["compound", "Cardiovascular effects (Mean)"],
 "data": [
  ["Cn1c(=O)c2c(ncn2CC(O)CO)n(C)c1=O (stereo not shown) [Compound II]", 13],
  ["CCCn1c(=O)c2c(ncn2CC(C)O)n(CCC)c1=O (stereo not shown) [III]", 13],
  ["CCCn1c(=O)c2c(ncn2CCCO)n(CCC)c1=O [IV]", 23],
  ["CCCn1c(=O)c2c(ncn2CC(O)CO)n(CCC)c1=O (stereo not shown) [Compound V]", 9]
]}

---

- Test system: dogs
- experimentNotes: Acute intravenous diuretic evaluation in dogs
- conditionLabel: estimated at HBD

{"columns": ["compound", "Diuretic Activity, I.V. Dogs"],
 "data": [
  ["CCCn1c(=O)c2c(ncn2CC(C)O)n(CCC)c1=O (stereo not shown)", "Mild"],
  ["CCCn1c(=O)c2c(ncn2CCCO)n(CCC)c1=O", "Mild"],
  ["CCCn1c(=O)c2c(ncn2CC(O)CO)n(CCC)c1=O (stereo not shown)", "Mild"]
]}

---

- Tested on: dog hind limb
- experimentNotes: Dog hind limb perfusion preparation (vasodilator)
- Format: in vivo
- conditionLabel: intra-arterial; relative to theophylline, molar basis
Let's look at some compounds and their measured Vasodilator, HLPP (Dogs), relative molar activity.
metric: Vasodilator, HLPP (Dogs), relative molar activity

{"columns": ["compound", "observedResult"],
 "data": [
  ["Cn1c(=O)c2c(ncn2CC(O)CO)n(C)c1=O (stereo not shown)", 0.06],
  ["CCCn1c(=O)c2c(ncn2CC(O)CO)n(CCC)c1=O (stereo not shown)", 0.40],
  ["CCCn1c(=O)c2c(ncn2CCCO)n(CCC)c1=O", 1.06],
  ["CCCn1c(=O)c2c(ncn2CC(C)O)n(CCC)c1=O (stereo not shown)", 0.76]
]}

---

Let's look at some compounds and their measured Oral Diuretic (Rats), relative molar activity.
- System: rats
- experimentNotes: Acute oral diuretic evaluation in rats
- Type: in vivo, Sprague Dawley rats
- conditionLabel: relative to theophylline, molar basis
metric: Oral Diuretic (Rats), relative molar activity

{"columns": ["compound", "systemTested", "observedResult"],
 "data": [
  ["CCCn1c(=O)c2c(ncn2CC(O)CO)n(CCC)c1=O (stereo not shown)", "rats", 1.05],
  ["CCCn1c(=O)c2c(ncn2CC(C)O)n(CCC)c1=O (stereo not shown)", "rats", 7.29],
  ["CCCn1c(=O)c2c(ncn2CCCO)n(CCC)c1=O", "rats", 1.48],
  ["Cn1c(=O)c2c(ncn2CC(O)CO)n(C)c1=O (stereo not shown)", "rats", 0.71]
]}

---

- System: dogs
- experimentNotes: Acute intravenous diuretic evaluation in dogs
- conditionLabel: relative to theophylline, molar basis
Let's look at some compounds and their measured I.V. Diuretic (Dogs), relative molar activity.
metric: I.V. Diuretic (Dogs), relative molar activity

{"columns": ["compound", "systemTested", "observedResult"],
 "data": [
  ["CCCn1c(=O)c2c(ncn2CCCO)n(CCC)c1=O", "dogs", 0.45],
  ["CCCn1c(=O)c2c(ncn2CC(C)O)n(CCC)c1=O (stereo not shown)", "dogs", 0.50],
  ["Cn1c(=O)c2c(ncn2CC(O)CO)n(C)c1=O (stereo not shown)", "dogs", 0.26],
  ["CCCn1c(=O)c2c(ncn2CC(O)CO)n(CCC)c1=O (stereo not shown)", "dogs", 0.59]
]}

---

Let's look at some compounds and their measured Mean acute toxicity and side effect activity (relative molar).
- experimentNotes: Summary of relative molar activities (means and therapeutic efficacy)
- conditionLabel: mean of acute toxicity and side effect lines of Table I, relative to theophylline
metric: Mean acute toxicity and side effect activity (relative molar)

{"columns": ["compound", "observedResult"],
 "data": [
  ["CCCn1c(=O)c2c(ncn2CC(O)CO)n(CCC)c1=O (stereo not shown)", 0.70],
  ["Cn1c(=O)c2c(ncn2CC(O)CO)n(C)c1=O (stereo not shown)", 0.26],
  ["CCCn1c(=O)c2c(ncn2CC(C)O)n(CCC)c1=O (stereo not shown)", 36.55],
  ["CCCn1c(=O)c2c(ncn2CCCO)n(CCC)c1=O", 2.60]
]}

---

- Tested on: dogs
- experimentNotes: Oral minimum emetic dose in dogs
- Format: in vivo, dog

{"columns": ["compound", "uom", "resultOperator", "MED (minimum emetic dose), P.O. Dogs"],
 "data": [
  ["CCCn1c(=O)c2c(ncn2CCCO)n(CCC)c1=O", "mg/kg", "=", 33],
  ["CCCn1c(=O)c2c(ncn2CC(C)O)n(CCC)c1=O (centres unmarked)", "mg/kg", "=", 0.8],
  ["CCCn1c(=O)c2c(ncn2CC(O)CO)n(CCC)c1=O (centres unmarked)", "mg/kg", "=", 442],
  ["Cn1c(=O)c2c(ncn2CC(O)CO)n(C)c1=O (centres unmarked)", "mg/kg", ">", 362],
  ["Cn1c(=O)c2[nH]cnc2n(C)c1=O", "mg/kg", "=", 128]
]}
